Please respond with reported CC50 for every item in the list.
# Test system: SARS-CoV-2
# measurementProtocol: Antiviral assay (viral RNA in culture supernatant by RT-qPCR)
# conditionLabel: Severe acute respiratory syndrome coronavirus 2, 72 h, read-out: CC50 (Antiviral Data), MOI of 0.05, 72 h, 96-well plate, RT-qPCR of viral RNA

# count of solved cases: 2
CC(C)(C)C(NC(=O)OCc1ccncc1)C(=O)N1C[C@H]2[C@@H]([C@H]1C(=O)N[C@H](C#N)C[C@@H]1CCCNC1=O)C2(C)C (stereo partly drawn) ... 1 to 10 µM
CC(C)Cc1cc(C[C@@H](C#N)NC(=O)[C@@H]2[C@@H]3[C@H](CN2C(=O)[C@H](NC(=O)C(F)(F)F)C(C)(C)C)C3(C)C)[nH]n1 ... > 100 µM

Report CC50 for each item below.
1. Cc1cc(C[C@@H](C#N)NC(=O)[C@@H]2[C@@H]3[C@H](CN2C(=O)[C@H](NC(=O)C(F)(F)F)C(C)(C)C)C3(C)C)[nH]n1
2. CCCN(CCC)[C@@H]1C[C@@H](C(=O)NC(C#N)Cc2cn[nH]c2O)N(C(=O)[C@@H](NC(=O)C(F)(F)F)C(C)(C)C)C1 (stereo partly drawn)
3. CCCN(CCC)[C@@H]1C[C@@H](C(=O)NC(C#N)C[C@@H]2CCNC2=O)N(C(=O)C(C)(C)NC(=O)OCc2ccccc2)C1 (stereo partly drawn)

[out]
1. 10.1 to 100 µM
2. > 100 µM
3. > 100 µM

[in] Kindly state the measured CC50 obtained for "CC(C)(C)[C@@H](NC(=O)C(F)(F)F)C(=O)N1C[C@H]2[C@@H]([C@H]1C(=O)N[C@H](C#N)Cc1cc(CO)n[nH]1)C2(C)C" with SARS-CoV-2.
[out] > 100 µM
